Below, each entry is listed alongside its reported relative viability.
system: HOP-62; assay: relative viability (nuclei count vs DMSO), 5 days (fraction); higher = more cells survive; conditions: first compound 6.325 µM
Enter the number alone.

Study these solved cases before continuing.
{"compound": "COCC1(CO)C(=O)C2CCN1CC2 (stereo not drawn) [PRIMA-1MET] + Nc1nc2[nH]cc(CCc3ccc(C(=O)N[C@@H](CCC(=O)O)C(=O)O)cc3)c2c(=O)[nH]1 [Pemetrexed] (partner 0.2 µM)", "target or system": "HOP-62", "relative viability": 0.377}
{"compound": "COCC1(CO)C(=O)C2CCN1CC2 (stereo not drawn) [PRIMA-1MET] + COc1cccc2cc(-c3nc([C@H]4CC[C@H](C(=O)O)CC4)n4ncnc(N)c34)[nH]c12 [OSI-027] (partner 0.5 µM)", "target or system": "HOP-62", "relative viability": 0.88}

Query: Dear colleague, I am looking for the recorded relative viability of the following compound: COCC1(CO)C(=O)C2CCN1CC2 (stereo not drawn) [PRIMA-1MET] + CCNC(=O)c1noc(-c2cc(C(C)C)c(O)cc2O)c1-c1ccc(CN2CCOCC2)cc1 [Luminespib] (partner 0.01 µM)
Response: 0.91

---

tested on: BEN; test: relative viability (nuclei count vs DMSO), 5 days (fraction); higher = more cells survive; conditions: first compound 0.03162 µM
endpoint: relative viability
Hey, just send me the number, nothing else.

See these solved cases before continuing.
{"compound": "O=c1cc(N2CCOCC2)oc2c(-c3cccc4c3sc3ccccc34)cccc12 + CS(=O)(=O)N1CCN(Cc2cc3nc(-c4cccc5[nH]ncc45)nc(N4CCOCC4)c3s2)CC1 [Pictilisib] (partner 1 µM)", "relative viability": 0.579}
{"compound": "CCN(CC)CCCCNc1ncc2cc(-c3cc(OC)cc(OC)c3)c(NC(=O)NC(C)(C)C)nc2n1 + NC(=O)Nc1cc(-c2cccc(F)c2)sc1C(=O)N[C@H]1CCCNC1 [AZD7762] (partner 0.2 µM)", "relative viability": 0.61}
{"compound": "CCN(CC)CCCCNc1ncc2cc(-c3cc(OC)cc(OC)c3)c(NC(=O)NC(C)(C)C)nc2n1 + C[C@]1(O)C[C@@H](c2nc(-c3ccc4ccc(-c5ccccc5)nc4c3)c3c(N)nccn32)C1 [Linsitinib] (partner 1 µM)", "relative viability": 0.838}
{"compound": "CCN(CC)CCCCNc1ncc2cc(-c3cc(OC)cc(OC)c3)c(NC(=O)NC(C)(C)C)nc2n1 + O=C(CCCCCCC(=O)Nc1ccccc1)NO [Vorinostat] (partner 1 µM)", "relative viability": 0.547}

Then there is this compound:
Query: Which relative viability is reported with BEN for this entry: CCN(CC)CCCCNc1ncc2cc(-c3cc(OC)cc(OC)c3)c(NC(=O)NC(C)(C)C)nc2n1 + CS(=O)(=O)CCNCc1ccc(-c2ccc3ncnc(Nc4ccc(OCc5cccc(F)c5)c(Cl)c4)c3c2)o1 [Lapatinib] (partner 2 µM) ?
Response: 0.539

---

system: NCI-H441; test: relative viability (nuclei count vs DMSO), 5 days (fraction); higher = more cells survive; settings: first compound 0.08 µM
relative viability listing for selected compounds.
Just the number, please.

{"compound": "O=c1cc(-c2cccc3c2Sc2ccccc2S3)oc(N2CCOCC2)c1 + CC(C)C[C@H](NC(=O)[C@H](Cc1ccccc1)NC(=O)c1cnccn1)B(O)O [Bortezomib] (partner 0.002 µM)", "relative viability": 0.488}
{"compound": "COc1nc(C)cnc1NS(=O)(=O)c1cccnc1-c1ccc(-c2nnco2)cc1 [Zibotentan] + Cc1nc(Nc2ncc(C(=O)Nc3c(C)cccc3Cl)s2)cc(N2CCN(CCO)CC2)n1 [Dasatinib] (partner 0.075 µM)", "relative viability": 0.715}
{"compound": "O=c1cc(-c2cccc3c2Sc2ccccc2S3)oc(N2CCOCC2)c1 + Nc1nc2[nH]cc(CCc3ccc(C(=O)N[C@@H](CCC(=O)O)C(=O)O)cc3)c2c(=O)[nH]1 [Pemetrexed] (partner 0.2 µM)", "relative viability": 0.258}

As a next step, examine the compound that follows.
Query: Field request: relative viability | item: O=c1cc(-c2cccc3c2Sc2ccccc2S3)oc(N2CCOCC2)c1 + NC(=O)Nc1cc(-c2cccc(F)c2)sc1C(=O)N[C@H]1CCCNC1 [AZD7762] (partner 0.2 µM)
Response: 0.965

---

tested on: SK-MES-1; assay: relative viability (nuclei count vs DMSO), 5 days (fraction); higher = more cells survive; settings: first compound 0.253 µM
endpoint: relative viability
Give a plain numeric answer without units written out.

Some compounds with recorded relative viability:
{"compound": "COc1nc(C)cnc1NS(=O)(=O)c1cccnc1-c1ccc(-c2nnco2)cc1 [Zibotentan] + Cc1cc(Nc2cc(N3CCN(C)CC3)nc(Sc3ccc(NC(=O)C4CC4)cc3)n2)n[nH]1 [Tozasertib] (partner 0.1 µM)", "target or system": "SK-MES-1", "endpoint": "relative viability", "assay result": 0.809}
{"compound": "COc1nc(C)cnc1NS(=O)(=O)c1cccnc1-c1ccc(-c2nnco2)cc1 [Zibotentan] + Nc1ncn([C@H]2C[C@H](O)[C@@H](CO)O2)c(=O)n1 [Decitabine] (partner 2 µM)", "target or system": "SK-MES-1", "endpoint": "relative viability", "assay result": 0.285}
{"compound": "COc1nc(C)cnc1NS(=O)(=O)c1cccnc1-c1ccc(-c2nnco2)cc1 [Zibotentan] + CC(=O)Nc1cccc(-n2c(=O)n(C3CC3)c(=O)c3c(Nc4ccc(I)cc4F)n(C)c(=O)c(C)c32)c1 [Trametinib] (partner 0.02 µM)", "target or system": "SK-MES-1", "endpoint": "relative viability", "assay result": 0.533}

Query: Any idea what its relative viability is? The compound is O=c1cc(-c2cccc3c2Sc2ccccc2S3)oc(N2CCOCC2)c1 + C[C@@H](Oc1cc(-c2cnn(C3CCNCC3)c2)cnc1N)c1c(Cl)ccc(F)c1Cl [Crizotinib] (partner 1 µM)
Response: 0.949

Query: Value lookup for relative viability; key = O=c1cc(-c2cccc3c2Sc2ccccc2S3)oc(N2CCOCC2)c1 + Nc1ncn([C@H]2C[C@H](O)[C@@H](CO)O2)c(=O)n1 [Decitabine] (partner 2 µM)
Response: 0.406

---

tested on: HARA; assay: relative viability (nuclei count vs DMSO), 5 days (fraction); higher = more cells survive; details: first compound 6.325 µM
endpoint: relative viability
Give your answer as a number; write no unit.

Guide cases for relative viability, answers given:
{"compound": "COCC1(CO)C(=O)C2CCN1CC2 (centres undefined) [PRIMA-1MET] + C[C@]1(O)C[C@@H](c2nc(-c3ccc4ccc(-c5ccccc5)nc4c3)c3c(N)nccn32)C1 [Linsitinib] (partner 1 µM)", "assay result": 0.903}
{"compound": "COCC1(CO)C(=O)C2CCN1CC2 (centres undefined) [PRIMA-1MET] + CS(=O)(=O)N1CCN(Cc2cc3nc(-c4cccc5[nH]ncc45)nc(N4CCOCC4)c3s2)CC1 [Pictilisib] (partner 1 µM)", "assay result": 0.446}
{"compound": "COCC1(CO)C(=O)C2CCN1CC2 (centres undefined) [PRIMA-1MET] + NC(=O)Nc1cc(-c2cccc(F)c2)sc1C(=O)N[C@H]1CCCNC1 [AZD7762] (partner 0.2 µM)", "assay result": 0.333}
{"compound": "COCC1(CO)C(=O)C2CCN1CC2 (centres undefined) [PRIMA-1MET] + Cc1nc(NC(=O)N2CCC[C@H]2C(N)=O)sc1-c1ccnc(C(C)(C)C(F)(F)F)c1 [Alpelisib] (partner 2 µM)", "assay result": 0.836}
{"compound": "COCC1(CO)C(=O)C2CCN1CC2 (centres undefined) [PRIMA-1MET] + CC1(C)CCC(c2ccc(Cl)cc2)=C(CN2CCN(c3ccc(C(=O)NS(=O)(=O)c4ccc(N[C@H](CCN5CCOCC5)CSc5ccccc5)c(S(=O)(=O)C(F)(F)F)c4)cc3)CC2)C1 [Navitoclax] (partner 0.5 µM)", "assay result": 1.13}

Query: Request: relative viability, test system HARA, entry COCC1(CO)C(=O)C2CCN1CC2 (centres undefined) [PRIMA-1MET] + Cc1cc(Nc2cc(N3CCN(C)CC3)nc(Sc3ccc(NC(=O)C4CC4)cc3)n2)n[nH]1 [Tozasertib] (partner 0.1 µM)
Response: 0.112

Query: Hi! What's the reported relative viability for COCC1(CO)C(=O)C2CCN1CC2 (centres undefined) [PRIMA-1MET] + Nc1nc2[nH]cc(CCc3ccc(C(=O)N[C@@H](CCC(=O)O)C(=O)O)cc3)c2c(=O)[nH]1 [Pemetrexed] (partner 0.2 µM) on HARA?
Response: 0.243

Query: Which relative viability is reported with HARA for this entry: COCC1(CO)C(=O)C2CCN1CC2 (centres undefined) [PRIMA-1MET] + O=C(c1cc(Cc2n[nH]c(=O)c3ccccc23)ccc1F)N1CCN(C(=O)C2CC2)CC1 [Olaparib] (partner 8 µM) ?
Response: 0.75

Query: Hello, I am looking for reported relative viability with HARA for COCC1(CO)C(=O)C2CCN1CC2 (centres undefined) [PRIMA-1MET] + CC(=O)c1c(C)c2cnc(Nc3ccc(N4CCNCC4)cn3)nc2n(C2CCCC2)c1=O [Palbociclib] (partner 0.5 µM) . Could you help?
Response: 0.286
